assayExplanation: Solubility of crystal form A in different solvents
Assay type: physicochemical
statedConditions: organic solvent or mixture, thermodynamic from solid; Butanone, room temperature
reportedProperty: solubility

**Query** Look up solubility of Cn1c(=O)n(C[C@H]2CC[C@@](C)(O)CC2)c(=O)c2c1ncn2CC1CC1 [Crystal Form A] and report it.
**Result** ~37.2 mg/mL

###

assayExplanation: Solubility of crystal form A in different solvents
Format: physicochemical
statedConditions: organic solvent or mixture, thermodynamic from solid; Ethyl acetate, room temperature
reportedProperty: solubility

**Query** Look up solubility of Cn1c(=O)n(C[C@H]2CC[C@@](C)(O)CC2)c(=O)c2c1ncn2CC1CC1 [Crystal Form A] and report it.
**Result** ~15.2 mg/mL
